settings: pH 6.8
VALUE_KIND: aqueous solubility (µg/mL)

- COMPOUND: "Nc1ccc2c(c1)ncn2CCc1ccccc1"
  VALUE_KIND: "aqueous solubility"
  OBSERVED: 38.4

A: Cn1cc(NC(=O)c2ccc(OCC3CCOCC3)nc2)cn1
B: CN(Cc1cccnc1)Cc1ccc(C#N)o1
C: CN(C(=O)CNC(=O)c1ccccc1OCC(=O)Nc1ccc(Br)cc1)c1ccccc1
stdin: Thanks in advance: please rank these 3 entries by aqueous solubility, highest to lowest. // respond by listing labels in the order requested
stdout: A, B, C

A: O=C(Nc1cccc(-c2nncn2C2CC2)c1)c1cc(-n2cnc(C3CC3)c2)ccn1
B: Cc1cc(Nc2ccccn2)cc(C2CCCN(CC(=O)Nc3ncc(C)s3)C2)n1 (configuration not stated)
stdin: Form: Entry with minimum aqueous solubility (choose one): A / B Identify your selection by its label.
stdout: A
(A: 45 µg/mL, B: 65.5 µg/mL)
